Give OD 450 nm for every item shown.
SYSTEM_UNDER_TEST: T1, Human hepcidin peptide (hepcidin-25) (human)
T1 construct: Synthetic 25 aa peptide; also called hep-25; Hep-25
T1 peptide: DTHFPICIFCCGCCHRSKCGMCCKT
MEASUREMENT_PROTOCOL: titration affinity ELISA, hepcidin 100 ng/well on Nunc Immobilizer Amino plate, CHO supernatant; antibody 6.25 ng/ml

Recorded results for 2 binders are shown here.
{"columns": ["BINDER", "VALUE_REPORTED"],
 "data": [
  ["BAP070-hum06 (antibody, IgG1, V domains shown, Expressed as soluble IgG1 in CHO cells, tested as supernatant; The entries stop inside FR4) VH: EVQLVQSGAEVKKPGESLRISCKGSGYTFTNYGMNWIRQPPGKGLEWIGWINTYTGEPTYADDFKGRVTISADKSISTAYLQWSSLKASDTAMYYCTTYATSWYWGQG VL: AIQLTQSPSSLSASVGDRVTITCRASESVDSYGNSFMHWYQQKPGQAPRLLIYRASNLESGVPSRFSGSGSGTDFTFTISSLQPEDIATYYCQQSNEDLTFG", "1.68 OD450"],
  ["BAP070-hum01 (antibody, IgG1, V domains shown, Expressed as soluble IgG1 in CHO cells, tested as supernatant; The entries stop inside FR4 (...WGQG / ...FG); also called humanized hit 1) VH: QVQLVQSGAEVKKPGASVKVSCKASGYTFTNYGMNWVRQARGQRLEWIGWINTYTGEPTYADDFKGRLTISKDTSKNQVVLTMTNMDPVDTATYYCTTYATSWYWGQG VL: DIQMTQSPSSLSASVGDRVTITCRASESVDSYGNSFMHWYQQKPGQAPRLLIYRASNLESGVPSRFSGSGSGTDFTFTISSLQPEDIATYYCQQSNEDLTFG", "2.05 OD450"]
]}

[ask] Param item = BAP070-hum02 (antibody, IgG1, V domains shown, Expressed as soluble IgG1 in CHO cells, tested as supernatant; The entries stop inside FR4) VH: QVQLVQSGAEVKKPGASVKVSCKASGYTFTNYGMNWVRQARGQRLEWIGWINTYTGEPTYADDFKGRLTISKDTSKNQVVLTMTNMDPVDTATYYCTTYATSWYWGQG VL: AIQLTQSPSSLSASVGDRVTITCRASESVDSYGNSFMHWYQQKPGKAPKLLIYRASNLESGIPARFSGSGSGTEFTLTISSLQSEDFAVYYCQQSNEDLTFG ; retrieve measured OD 450 nm.
[reply] 1.85 OD450
